Reported pIC50 values are given for each entry in this list.
# target-entity: HLA-A*68:02
# protocol-summary: IEDB peptide-MHC binding, purified MHC/competitive/radioactivity; bounds were set here for any values at or beyond the usual limits of such assays
# recorded-conditions: source organism: Vaccinia virus WR
Scale for pIC50: -log10 of concentration given in mol/L; no unit attached.

Below, 8 sequences whose answers are already recorded.
ETAIRAGYSI; 6.87
TLNTLITLI; 6.33
SVDFVVNGHT; 5.87
ALVSDCAST; 6.11
IMAFILGII; 5.60
NVISKIYTLI; 7.17
LTGTFVTAFI; 6.96
CAVNTPVSM; 6.30

Please state recorded pIC50 (tested on HLA-A*68:02) of AAITLVVISV
6.15

Please state recorded pIC50 (tested on HLA-A*68:02) of TISGNIYSAL
7.72

Kindly state the measured pIC50 obtained for TTNNLLEQLI with HLA-A*68:02.
7.14

Record lookup: for HLA-A*68:02, what pIC50 belongs to TAATKRYPGV ?
6.02

* * *

# target-entity: HLA-A*02:06
# protocol-summary: IEDB peptide-MHC binding, cellular MHC/competitive/fluorescence; bounds were set here for any values at or beyond the usual limits of such assays
# recorded-conditions: source organism: Mammarenavirus choriomeningitidis
pIC50: −log10 of the molar value.
Decision: pIC50 >= 5 yields YES, all other cases yield NO.

SCDDVVFGI; NO
LNQTVYSLV; YES
HNASDFYGL; NO

Does KCMSAALKNL have a reported pIC50 of at least 5?
NO

* * *

# target-entity: HLA-A*02:03
# protocol-summary: IEDB peptide-MHC binding, purified MHC/competitive/radioactivity; bounds were set here for any values at or beyond the usual limits of such assays
# recorded-conditions: source organism: SARS-CoV1
pIC50: −log10 of the molar value.
Tick yes (1) if pIC50 is 7 or greater. Tick no (0) if pIC50 is less than 7.

ALYKGFQFI; yes (1)
YLVQQESSFV; yes (1)
FLAFLLFLVL; no (0)
FLFLAWIMLL; yes (1)
VMCGGSLYV; yes (1)

Does pIC50 meet or surpass 7 for ALLFLMSFT ?
no (0)

Is pIC50 for AQMGTLLIA at or above 7?
yes (1)

Tell me whether pIC50 is at least 7 here: SLPSYAAYA
yes (1)

Assess whether reported pIC50 for FLLFLVLIML sits at 7 or higher.
no (0)

For this sequence, is measured pIC50 7 or higher? FLLVTLAIL
yes (1)

* * *

# target-entity: HLA-A*02:01
# protocol-summary: IEDB peptide-MHC binding, purified MHC/competitive/radioactivity; bounds were set here for any values at or beyond the usual limits of such assays
# recorded-conditions: source organism: SARS-CoV1
Mark Met only for IC50 values smaller than 30 nM; exact matches and larger values are Not met.

Some solved cases for reference:
WLVIGVAFL; Not met
ALDGVLSTFV; Met
FLLPSLATV; Met
CVMYASALV; Met

# check: IC50 < 30 nM for KLLIVLTCI
Not met

Consider RMVSLVTSFL . Does its IC50 lie strictly below 30 nM?
Not met

Please indicate whether the reported IC50 of GLSDRVVFV is strictly below 30 nM.
Met

Just wondering, is IC50 of TLDAANHSI below 30 nM?
Met

Take the sequence FVVFLLVTL and say whether its IC50 is less than 30 nM.
Not met

Quick check: IC50 of ALIARCWYL under 30 nM?
Met

API: query returns whether the sequence falls strictly under 30 nM in IC50. Query: IVAALVFLI
Met

Confirm or reject: IC50 of SLVTSFLLM lies strictly below 30 nM
Not met
